- target: PKM2 (Homo sapiens)
- Sequence (P14618 whole entry): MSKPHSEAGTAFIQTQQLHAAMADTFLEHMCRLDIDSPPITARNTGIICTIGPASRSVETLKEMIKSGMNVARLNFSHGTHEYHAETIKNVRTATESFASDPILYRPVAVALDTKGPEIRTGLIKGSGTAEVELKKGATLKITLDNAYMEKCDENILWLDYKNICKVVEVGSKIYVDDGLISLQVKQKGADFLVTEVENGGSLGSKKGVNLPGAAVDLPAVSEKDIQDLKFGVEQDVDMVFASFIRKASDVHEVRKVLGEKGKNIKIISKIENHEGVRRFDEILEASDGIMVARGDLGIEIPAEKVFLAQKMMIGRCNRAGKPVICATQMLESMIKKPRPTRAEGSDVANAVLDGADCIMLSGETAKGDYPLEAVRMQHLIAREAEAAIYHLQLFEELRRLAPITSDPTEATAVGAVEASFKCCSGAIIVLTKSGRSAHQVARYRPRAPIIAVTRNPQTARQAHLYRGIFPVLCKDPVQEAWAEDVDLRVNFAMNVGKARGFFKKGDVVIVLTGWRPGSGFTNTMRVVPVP
- test method notes: PKM2 activation biochemical assay (AC50 / max. response vs fructose 1,6-bisphosphate)
- setup conditions: biochemical assay; read-out: PKM2 AC50
Assign labels as follows, please: satisfied for AC50 below 4 µM; not satisfied for AC50 equal to or exceeding 4 µM.

Problem: Here's an entry: `O=C(c1cc(Br)n[nH]1)N(CCC1CCS(=O)(=O)CC1)Cc1ccccc1F` . Is its AC50 below 4 µM?
Solution: satisfied

Problem: In the record for O=C(c1cc(C(F)(F)F)n[nH]1)N(CCC1CCS(=O)(=O)C1)Cc1ccccn1 (centres unmarked) , is AC50 less than 4 µM?
Solution: satisfied

Problem: Dear colleague, could you confirm whether AC50 of `Nc1ccc(CN(CCN2CCCCCC2)C(=O)c2cc(C(F)(F)F)n[nH]2)c(Cl)c1` falls below 4 µM? Thanks.
Solution: satisfied

Problem: Is the reported AC50 for O=C(c1cc(C(F)(F)F)n[nH]1)N(CCC1CCS(=O)(=O)C1)Cc1cc(F)cc(F)c1 (centres unmarked) strictly below 4 µM?
Solution: satisfied

Problem: I'd appreciate it if you could check whether `CO[C@H]1CC[C@H](N(Cc2cccc(N)c2)C(=O)c2cc(C(F)(F)F)n[nH]2)CC1` has AC50 smaller than 4 µM.
Solution: satisfied

Problem: Here's an entry: `O=C(c1cc(C(F)(F)F)n[nH]1)N(CCN1CCC(F)(F)CC1)Cc1ccccc1Cl` . Is its AC50 below 4 µM?
Solution: satisfied

Problem: Could you please tell me whether AC50 recorded for `O=C(c1cc(C(F)(F)F)n[nH]1)N(Cc1ccccc1F)c1ncco1` is less than 4 µM?
Solution: not satisfied

Problem: Does O=C(c1cc(C(F)(F)F)n[nH]1)N(CCC1CC[S+]([O-])CC1)Cc1ccccc1Cl (centres unmarked) have AC50 strictly under 4 µM?
Solution: satisfied

Problem: For the compound CC1CCCC(C)N1CCN(Cc1ccccc1Cl)C(=O)c1cc(C(F)(F)F)n[nH]1 (centres unmarked) , is AC50 under 4 µM?
Solution: not satisfied

Problem: Criterion: AC50 strictly below 4 µM. Is it met by O=C(c1cc(C(F)(F)F)n[nH]1)N(CCC1CCS(=O)(=O)CC1)Cc1ccccc1Cl [Compound 75] ?
Solution: satisfied

Problem: Just wondering, is AC50 of `O=C(c1cc(C(F)(F)F)n[nH]1)N(CCN1CCS(=O)(=O)CC1)Cc1c(F)cccc1F` below 4 µM?
Solution: not satisfied

Problem: Hi there! Is AC50 for `NCCN(Cc1ccc(O)cc1F)C(=O)c1cc(C(F)(F)F)n[nH]1` below 4 µM, do you know?
Solution: satisfied

Problem: A record lists `O=C(c1cc(C(F)(F)F)n[nH]1)N(CCC1CCOCC1)Cc1ccccc1F` . Is its AC50 below 4 µM?
Solution: satisfied

Problem: Just wondering, is AC50 of `O=C(CCSC(=S)NCc1cccnc1)c1ccc(C(F)(F)F)cc1` below 4 µM?
Solution: not satisfied

Problem: Hi there! Is AC50 for O=C(c1cc(C(F)(F)F)n[nH]1)N(CCN1CCCC(O)C1)Cc1ccccc1Cl (centres unmarked) below 4 µM, do you know?
Solution: satisfied

Problem: Please indicate whether the reported AC50 of `O=C(CCSC(=S)NCc1cccnc1)c1ccc(F)cc1` is strictly below 4 µM.
Solution: not satisfied

Problem: In plain terms, does `O=C(c1cc(C(F)(F)F)n[nH]1)N(CCN1CCS(=O)(=O)CC1)Cc1cccc(F)c1F` come in under 4 µM for AC50?
Solution: not satisfied

Problem: Answer whether the compound `O=C(c1cc(C(F)(F)F)n[nH]1)N(CCN1CCCCCC1)Cc1cccc2nc[nH]c12` has AC50 strictly less than 4 µM
Solution: satisfied

Problem: Quick check: AC50 of `CCN(CC)CCN(Cc1cccc2[nH]cnc12)C(=O)c1cc(C(F)(F)F)n[nH]1` under 4 µM?
Solution: satisfied

Problem: Confirm or reject: AC50 of CCCC(C)N(Cc1ccccc1)C(=O)c1cc(C(F)(F)F)n[nH]1 (centres unmarked) lies strictly below 4 µM
Solution: not satisfied

----------
- target: PKM2 (Homo sapiens)
- test method notes: PKM2 activation biochemical assay (AC50 / max. response vs fructose 1,6-bisphosphate)
- setup conditions: % maximum response in a biochemical assay as compared with Fructose 1,6-bisphosphate
property: Max. Resp. (%)
Express the result in % but write the number alone.

The compound `O=C(c1cc(C(F)(F)F)n[nH]1)N(CCN1CCCCCC1)Cc1ccccc1F` , when measured on PKM2 (Homo sapiens), yielded Max. Resp. (%) of 100

# Max. Resp. (%) measured on PKM2 (Homo sapiens) for item `CCN(CC)CCN(Cc1ccc(F)cc1Cl)C(=O)c1cc(C(F)(F)F)n[nH]1` = 100

Bench note, PKM2 (Homo sapiens): O=C(c1cc(C(F)(F)F)n[nH]1)N(CCC1CCS(=O)(=O)C1)Cc1ccccn1 (stereo not drawn) , Max. Resp. (%) reads 96

Max. Resp. (%) of `O=C(c1cc(C(F)(F)F)n[nH]1)N(CCN1CCCCCC1)Cc1ccc(O)cc1F` , assay on PKM2 (Homo sapiens), is 100

// assay PKM2 (Homo sapiens), entry `O=C(c1cc(C(F)(F)F)n[nH]1)N(CCN1CCCC1)Cc1cccc2[nH]ccc12` , Max. Resp. (%) value = 100

Measured Max. Resp. (%) for this entry `O=C(c1cc(C(F)(F)F)n[nH]1)N(Cc1ccc(O)cc1F)C1CCCC1` on PKM2 (Homo sapiens): 100

Per the reported PKM2 (Homo sapiens) data, `CCN1CCC(CCN(Cc2c(Cl)cccc2Cl)C(=O)c2cc(C(F)(F)F)n[nH]2)CC1` has Max. Resp. (%) of 71

The observed Max. Resp. (%) for `CCN1CCC(CCN(Cc2ccccc2Cl)C(=O)c2cc(C(F)(F)F)n[nH]2)CC1` when tested with PKM2 (Homo sapiens) stands at 96

The measured Max. Resp. (%) that NC1CC(N(Cc2ccccc2Cl)C(=O)c2cc(C(F)(F)F)n[nH]2)C1 (stereo not drawn) showed for PKM2 (Homo sapiens) is 80

Form: item `CCN(CC)CCN(Cc1cc(Cl)ccc1Cl)C(=O)c1cc(C(F)(F)F)n[nH]1` ; test system PKM2 (Homo sapiens); Max. Resp. (%): 100

The compound `CCN(CC)CCN(Cc1cc(F)ccc1Cl)C(=O)c1cc(C(F)(F)F)n[nH]1` , when measured on PKM2 (Homo sapiens), yielded Max. Resp. (%) of 100

Max. Resp. (%) for PKM2 (Homo sapiens) with input `CCN(CC)CCCN(Cc1ccccc1Cl)C(=O)c1cc(C(F)(F)F)n[nH]1` equals 53

The measured Max. Resp. (%) that `N#Cc1ccc(C(=O)CCSC(=S)NCc2cccnc2)cc1` showed for PKM2 (Homo sapiens) is 61

Simply: `Nc1cccc(Cl)c1CN(CCN1CCS(=O)(=O)CC1)C(=O)c1cc(C(F)(F)F)n[nH]1` , PKM2 (Homo sapiens), Max. Resp. (%) = 100

Tested on PKM2 (Homo sapiens): `Nc1cccc(Cl)c1CN(CCN1CCCCCC1)C(=O)c1cc(C(F)(F)F)n[nH]1` . Observed Max. Resp. (%): 100

Noted Max. Resp. (%) for CC1CCCN(CCN(Cc2cc(N)ccc2Cl)C(=O)c2cc(C(F)(F)F)n[nH]2)C1 (stereo not drawn) , tested on PKM2 (Homo sapiens): 100

Fill in: PKM2 (Homo sapiens) Max. Resp. (%) for O=C(c1cc(C(F)(F)F)n[nH]1)N(CCC1CC[S+]([O-])CC1)Cc1ccccc1Cl (stereo not drawn) = 95

Noted Max. Resp. (%) for `CCOCCN(Cc1ccccc1Cl)C(=O)c1cc(C(F)(F)F)n[nH]1` , tested on PKM2 (Homo sapiens): 87
